Protein target, amino acids: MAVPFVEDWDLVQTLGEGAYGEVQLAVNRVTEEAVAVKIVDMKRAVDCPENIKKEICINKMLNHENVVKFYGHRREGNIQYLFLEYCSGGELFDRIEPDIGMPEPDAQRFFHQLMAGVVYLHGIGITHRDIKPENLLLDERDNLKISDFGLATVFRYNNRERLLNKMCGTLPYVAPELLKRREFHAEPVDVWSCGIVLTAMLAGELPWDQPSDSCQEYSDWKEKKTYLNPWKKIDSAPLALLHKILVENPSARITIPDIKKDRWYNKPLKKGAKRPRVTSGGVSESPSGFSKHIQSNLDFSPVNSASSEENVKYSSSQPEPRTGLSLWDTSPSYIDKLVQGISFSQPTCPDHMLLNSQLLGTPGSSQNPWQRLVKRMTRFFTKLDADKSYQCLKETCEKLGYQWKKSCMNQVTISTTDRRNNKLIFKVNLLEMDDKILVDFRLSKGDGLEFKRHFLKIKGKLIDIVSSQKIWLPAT
Measurement label: IC50 (nM)
Hi! Could you send only the number? It should be in nM, unit omitted.

### Prompt Kindly indicate its recorded IC50. Item: CN1CCCNc2c(c(=O)c2=O)NCCCN(C)CCCNc2c(c(=O)c2=O)NCCCN(C)CCCNc2c(c(=O)c2=O)NCCCN(C)CCCNc2c(c(=O)c2=O)NCCCN(C)CCCNc2c(c(=O)c2=O)NCCC1
### Response 1400

Origin of the recorded values: patent US20110294772A1
